Tested on: FLT3-ITD
Assay: KINOMEscan binding assay
REPORTED_METRIC: % FLT3-ITD Binding at 1 µM (%)

MOLECULE	READOUT_VALUE
Cc1ncsc1-c1ccc([C@H](C)NC(=O)[C@@H]2C[C@@H](O)CN2C(=O)[C@@H](NC(=O)CCCCCCNC(=O)c2cc(Oc3ccc(NC(=O)Nc4cc(C(C)(C)C)on4)cc3)ccn2)C(C)(C)C)cc1	89
Cc1ncsc1-c1ccc([C@H](C)NC(=O)[C@@H]2C[C@@H](O)CN2C(=O)[C@@H](NC(=O)CCOCCOCCOCCNC(=O)c2cc(Oc3ccc(NC(=O)Nc4cc(C(C)(C)C)on4)cc3)ccn2)C(C)(C)C)cc1 [MA49, reference compound]	91
Cc1ncsc1-c1ccc([C@H](C)NC(=O)[C@H]2C[C@H](O)CN2C(=O)[C@@H](NC(=O)[C@H]2CC[C@H](C(=O)N3CCN(CCNC(=O)c4cc(Oc5ccc(NC(=O)Nc6cc(C(C)(C)C)on6)cc5)ccn4)CC3)CC2)C(C)(C)C)cc1	97
Cc1ncsc1-c1ccc([C@H](C)NC(=O)[C@@H]2C[C@@H](O)CN2C(=O)[C@@H](NC(=O)[C@H]2CC[C@H](C(=O)N3CCN(CCNC(=O)c4cc(Oc5ccc(NC(=O)Nc6cc(C(C)(C)C)on6)cc5)ccn4)CC3)CC2)C(C)(C)C)cc1	88

----------
Test: Non-enzymatic stability under cellular assay conditions (HPLC)
Assay type: physicochemical
Details: compound remaining, assay medium DMEM, 37 °C, 12 h
REPORTED_METRIC: 12 h- % (%)

MOLECULE	12 h- % [%]
Cc1ncsc1-c1ccc([C@H](C)NC(=O)[C@@H]2C[C@@H](O)CN2C(=O)[C@@H](NC(=O)CCOCCOCCOCCNC(=O)c2cc(Oc3ccc(NC(=O)Nc4cc(C(C)(C)C)on4)cc3)ccn2)C(C)(C)C)cc1 [MA49, reference compound]	101.4
Cc1ncsc1-c1ccc([C@H](C)NC(=O)[C@@H]2C[C@@H](O)CN2C(=O)[C@@H](NC(=O)[C@H]2CC[C@H](C(=O)N3CCC(CCNC(=O)c4cc(Oc5ccc(NC(=O)Nc6cc(C(C)(C)C)on6)cc5)ccn4)CC3)CC2)C(C)(C)C)cc1	103.2
Cc1ncsc1-c1ccc([C@H](C)NC(=O)[C@@H]2C[C@@H](O)CN2C(=O)[C@@H](NC(=O)CCCCCNC(=O)c2cc(Oc3ccc(NC(=O)Nc4cc(C(C)(C)C)on4)cc3)ccn2)C(C)(C)C)cc1	99.5
CNC(=O)c1cc(Oc2ccc(NC(=O)Nc3cc(C(C)(C)C)on3)cc2)ccn1 [MA68, reference compound]	102.4
Cc1ncsc1-c1ccc([C@H](C)NC(=O)[C@@H]2C[C@@H](O)CN2C(=O)[C@@H](NC(=O)CCCCCCNC(=O)c2cc(Oc3ccc(NC(=O)Nc4cc(C(C)(C)C)on4)cc3)ccn2)C(C)(C)C)cc1	99.6

----------
Assay: Non-enzymatic stability under cellular assay conditions (HPLC)
Format: physicochemical
Settings: compound remaining, assay medium DMEM, 37 °C, 6 h
REPORTED_METRIC: 6 h- % (%)

COMPOUND	6 h- % (%)
Cc1ncsc1-c1ccc([C@H](C)NC(=O)[C@@H]2C[C@@H](O)CN2C(=O)[C@@H](NC(=O)CCOCCOCCNC(=O)c2cc(Oc3ccc(NC(=O)Nc4cc(C(C)(C)C)on4)cc3)ccn2)C(C)(C)C)cc1	101.4
Cc1ncsc1-c1ccc([C@H](C)NC(=O)[C@@H]2C[C@@H](O)CN2C(=O)[C@@H](NC(=O)[C@H]2CC[C@H](C(=O)N3CCN(CCNC(=O)c4cc(Oc5ccc(NC(=O)Nc6cc(C(C)(C)C)on6)cc5)ccn4)CC3)CC2)C(C)(C)C)cc1	100.3
Cc1ncsc1-c1ccc([C@H](C)NC(=O)[C@@H]2C[C@@H](O)CN2C(=O)[C@@H](NC(=O)CCCCCNC(=O)c2cc(Oc3ccc(NC(=O)Nc4cc(C(C)(C)C)on4)cc3)ccn2)C(C)(C)C)cc1	99.5
Cc1ncsc1-c1ccc([C@H](C)NC(=O)[C@@H]2C[C@@H](O)CN2C(=O)[C@@H](NC(=O)CCOCCOCCOCCNC(=O)c2cc(Oc3ccc(NC(=O)Nc4cc(C(C)(C)C)on4)cc3)ccn2)C(C)(C)C)cc1 [MA49, reference compound]	101.1

----------
Test: in vitro
Settings: CD-1, mouse, liver microsomes, pH 7.4
REPORTED_METRIC: remaining at 1 h, 25 µM (%)

Worked cases, answers included:
MOLECULE	remaining at 1 h, 25 µM, %
Cc1ncsc1-c1ccc([C@H](C)NC(=O)[C@@H]2C[C@@H](O)CN2C(=O)[C@@H](NC(=O)[C@H]2CC[C@H](C(=O)N3CCN(CCNC(=O)c4cc(Oc5ccc(NC(=O)Nc6cc(C(C)(C)C)on6)cc5)ccn4)CC3)CC2)C(C)(C)C)cc1 [MA191]	93
Cc1ncsc1-c1ccc([C@H](C)NC(=O)[C@@H]2C[C@@H](O)CN2C(=O)[C@@H](NC(=O)[C@H]2CC[C@H](C(=O)N3CCC(CCNC(=O)c4cc(Oc5ccc(NC(=O)Nc6cc(C(C)(C)C)on6)cc5)ccn4)CC3)CC2)C(C)(C)C)cc1 [MA190]	96

a. O=C(O)Cc1ccccc1Nc1c(Cl)cccc1Cl [Diclofenac, Diclofenac sodium, reference compound]
b. Cc1ncsc1-c1ccc([C@H](C)NC(=O)[C@@H]2C[C@@H](O)CN2C(=O)[C@@H](NC(=O)CCOCCOCCOCCNC(=O)c2cc(Oc3ccc(NC(=O)Nc4cc(C(C)(C)C)on4)cc3)ccn2)C(C)(C)C)cc1 [MA49, reference compound]
-- ask Two entries are listed, a and b . Which one carries the higher remaining at 1 h, 25 µM? Lab log: write the label of the selected item as the result.
-- reply a
(a: 73%, b: 29%)

----------
Test: in vitro
Conditions: human, HEK293 cells
REPORTED_METRIC: viability at 24 h, 50 µM (%)
The figure you give is taken to be in %; do not add the unit.

Worked cases, answers included:
MOLECULE	viability at 24 h, 50 µM, %
CNC(=O)c1cc(Oc2ccc(NC(=O)Nc3cc(C(C)(C)C)on3)cc2)ccn1 [MA68, reference compound]	11.5
Cc1ncsc1-c1ccc([C@H](C)NC(=O)[C@@H]2C[C@@H](O)CN2C(=O)[C@@H](NC(=O)[C@H]2CC[C@H](C(=O)N3CCC(CCNC(=O)c4cc(Oc5ccc(NC(=O)Nc6cc(C(C)(C)C)on6)cc5)ccn4)CC3)CC2)C(C)(C)C)cc1	99.1
Cc1ncsc1-c1ccc([C@H](C)NC(=O)[C@@H]2C[C@@H](O)CN2C(=O)[C@@H](NC(=O)CCOCCOCCOCCNC(=O)c2cc(Oc3ccc(NC(=O)Nc4cc(C(C)(C)C)on4)cc3)ccn2)C(C)(C)C)cc1 [MA49, reference compound]	2.9

Let's switch to this molecule now.
Looking up Cc1ncsc1-c1ccc([C@H](C)NC(=O)[C@@H]2C[C@@H](O)CN2C(=O)[C@@H](NC(=O)[C@H]2CC[C@H](C(=O)N3CCN(CCNC(=O)c4cc(Oc5ccc(NC(=O)Nc6cc(C(C)(C)C)on6)cc5)ccn4)CC3)CC2)C(C)(C)C)cc1 , I see its viability at 24 h, 50 µM listed as 86.9

----------
Experiment: Non-enzymatic stability under cellular assay conditions (HPLC)
Type: physicochemical
Settings: compound remaining, assay medium DMEM, 37 °C, 48 h
REPORTED_METRIC: 48 h- % (%)

MOLECULE	UNIT_SYMBOL	READOUT_VALUE
CNC(=O)c1cc(Oc2ccc(NC(=O)Nc3cc(C(C)(C)C)on3)cc2)ccn1 [MA68, reference compound]	%	105.7
Cc1ncsc1-c1ccc([C@H](C)NC(=O)[C@@H]2C[C@@H](O)CN2C(=O)[C@@H](NC(=O)[C@H]2CC[C@H](C(=O)N3CCC(CCNC(=O)c4cc(Oc5ccc(NC(=O)Nc6cc(C(C)(C)C)on6)cc5)ccn4)CC3)CC2)C(C)(C)C)cc1	%	105.4
Cc1ncsc1-c1ccc([C@H](C)NC(=O)[C@@H]2C[C@@H](O)CN2C(=O)[C@@H](NC(=O)CCCCCNC(=O)c2cc(Oc3ccc(NC(=O)Nc4cc(C(C)(C)C)on4)cc3)ccn2)C(C)(C)C)cc1	%	100.6
Cc1ncsc1-c1ccc([C@H](C)NC(=O)[C@@H]2C[C@@H](O)CN2C(=O)[C@@H](NC(=O)CCOCCOCCNC(=O)c2cc(Oc3ccc(NC(=O)Nc4cc(C(C)(C)C)on4)cc3)ccn2)C(C)(C)C)cc1	%	102.6
Cc1ncsc1-c1ccc([C@H](C)NC(=O)[C@@H]2C[C@@H](O)CN2C(=O)[C@@H](NC(=O)CCCCCNC(=O)c2cc(Oc3ccc(NC(=O)Nc4cccc(C(F)(F)F)c4)cc3)ccn2)C(C)(C)C)cc1	%	101.0
Cc1ncsc1-c1ccc([C@H](C)NC(=O)[C@@H]2C[C@@H](O)CN2C(=O)[C@@H](NC(=O)CCCCCCCNC(=O)c2cc(Oc3ccc(NC(=O)Nc4cc(C(C)(C)C)on4)cc3)ccn2)C(C)(C)C)cc1	%	103.3
Cc1ncsc1-c1ccc([C@H](C)NC(=O)[C@@H]2C[C@@H](O)CN2C(=O)[C@@H](NC(=O)CCCCCCCNC(=O)c2cc(Oc3ccc(NC(=O)Nc4cccc(C(F)(F)F)c4)cc3)ccn2)C(C)(C)C)cc1	%	100.8
Cc1ncsc1-c1ccc([C@H](C)NC(=O)[C@@H]2C[C@@H](O)CN2C(=O)[C@@H](NC(=O)[C@H]2CC[C@H](C(=O)N3CCN(CCNC(=O)c4cc(Oc5ccc(NC(=O)Nc6cc(C(C)(C)C)on6)cc5)ccn4)CC3)CC2)C(C)(C)C)cc1	%	100.3
Cc1ncsc1-c1ccc([C@H](C)NC(=O)[C@@H]2C[C@@H](O)CN2C(=O)[C@@H](NC(=O)CCCCCCNC(=O)c2cc(Oc3ccc(NC(=O)Nc4cc(C(C)(C)C)on4)cc3)ccn2)C(C)(C)C)cc1	%	100.5
Cc1ncsc1-c1ccc([C@H](C)NC(=O)[C@@H]2C[C@@H](O)CN2C(=O)[C@@H](NC(=O)CCOCCOCCOCCNC(=O)c2cc(Oc3ccc(NC(=O)Nc4cc(C(C)(C)C)on4)cc3)ccn2)C(C)(C)C)cc1 [MA49, reference compound]	%	104.2
